target-system: Histone deacetylase 1 (Homo sapiens)
Sequence (Q13547 whole entry): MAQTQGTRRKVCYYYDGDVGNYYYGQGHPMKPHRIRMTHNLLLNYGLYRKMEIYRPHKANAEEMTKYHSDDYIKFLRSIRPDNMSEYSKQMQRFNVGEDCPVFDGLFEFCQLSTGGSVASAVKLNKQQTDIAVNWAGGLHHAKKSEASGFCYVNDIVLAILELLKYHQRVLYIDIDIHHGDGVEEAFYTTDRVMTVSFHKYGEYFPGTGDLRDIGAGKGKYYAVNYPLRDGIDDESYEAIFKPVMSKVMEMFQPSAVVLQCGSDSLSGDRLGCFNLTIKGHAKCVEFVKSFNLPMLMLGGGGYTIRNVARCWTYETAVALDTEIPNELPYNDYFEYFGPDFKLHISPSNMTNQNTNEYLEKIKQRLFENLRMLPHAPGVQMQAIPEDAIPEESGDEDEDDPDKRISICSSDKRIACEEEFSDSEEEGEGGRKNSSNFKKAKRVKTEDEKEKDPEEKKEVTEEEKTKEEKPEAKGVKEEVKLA
metric: pIC50
Friendly reminder that pIC50 comes from taking -log10 of the concentration in mol/L.

State its pIC50: `CN(Cc1ccc(/C=C/C(=O)NO)cc1F)CC12CC3CC(CC(C3)C1)C2`
7.77

----------
Protein target, amino acids: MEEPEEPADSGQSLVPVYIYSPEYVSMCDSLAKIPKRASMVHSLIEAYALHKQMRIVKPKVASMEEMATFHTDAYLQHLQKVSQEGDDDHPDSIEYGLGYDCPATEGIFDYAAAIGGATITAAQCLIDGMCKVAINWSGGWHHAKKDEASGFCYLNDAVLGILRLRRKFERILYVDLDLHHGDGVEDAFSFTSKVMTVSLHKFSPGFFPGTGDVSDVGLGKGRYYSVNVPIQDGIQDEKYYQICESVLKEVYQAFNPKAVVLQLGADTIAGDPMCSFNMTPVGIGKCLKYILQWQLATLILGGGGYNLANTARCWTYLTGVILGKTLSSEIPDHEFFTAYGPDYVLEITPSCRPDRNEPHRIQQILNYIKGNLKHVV
pIC50: −log10 of the molar value.
metric: pIC50

Read the entry `CN(Cc1ccc(/C=C/C(=O)NO)cc1F)CC12CC3CC(CC(C3)C1)C2` and write its reported pIC50.
< 6.00

----------
target-system: Histone deacetylase 3 (Homo sapiens)
Sequence (O15379 whole entry): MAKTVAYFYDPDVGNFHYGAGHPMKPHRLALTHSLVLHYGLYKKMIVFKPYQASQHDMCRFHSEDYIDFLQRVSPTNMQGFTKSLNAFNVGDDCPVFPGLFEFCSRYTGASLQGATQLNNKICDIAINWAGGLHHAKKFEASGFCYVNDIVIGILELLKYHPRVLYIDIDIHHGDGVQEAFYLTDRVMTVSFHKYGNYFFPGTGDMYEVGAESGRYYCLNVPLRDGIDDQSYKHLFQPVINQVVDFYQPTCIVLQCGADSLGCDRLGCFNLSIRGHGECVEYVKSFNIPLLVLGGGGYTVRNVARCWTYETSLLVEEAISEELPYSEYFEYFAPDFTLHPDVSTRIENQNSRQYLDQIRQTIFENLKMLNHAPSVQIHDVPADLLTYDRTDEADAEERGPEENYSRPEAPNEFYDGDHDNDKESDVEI
assay-comment: IC50 Assay: IC50 measurements were conducted by BPS Biosciences (Table 1) or by Nanosyn (Table 1A) with an established fluorescence assay.
metric: pIC50
Kindly note that pIC50 refers to -log10 of the concentration in mol/L and answer with the value alone.

Please indicate pIC50 recorded for `CN(Cc1ccc(/C=C/C(=O)NO)cc1F)CC12CC3CC(CC(C3)C1)C2`
7.64

----------
target-system: Histone deacetylase 4 (Homo sapiens, UniProt P56524)
Sequence (P56524 whole entry): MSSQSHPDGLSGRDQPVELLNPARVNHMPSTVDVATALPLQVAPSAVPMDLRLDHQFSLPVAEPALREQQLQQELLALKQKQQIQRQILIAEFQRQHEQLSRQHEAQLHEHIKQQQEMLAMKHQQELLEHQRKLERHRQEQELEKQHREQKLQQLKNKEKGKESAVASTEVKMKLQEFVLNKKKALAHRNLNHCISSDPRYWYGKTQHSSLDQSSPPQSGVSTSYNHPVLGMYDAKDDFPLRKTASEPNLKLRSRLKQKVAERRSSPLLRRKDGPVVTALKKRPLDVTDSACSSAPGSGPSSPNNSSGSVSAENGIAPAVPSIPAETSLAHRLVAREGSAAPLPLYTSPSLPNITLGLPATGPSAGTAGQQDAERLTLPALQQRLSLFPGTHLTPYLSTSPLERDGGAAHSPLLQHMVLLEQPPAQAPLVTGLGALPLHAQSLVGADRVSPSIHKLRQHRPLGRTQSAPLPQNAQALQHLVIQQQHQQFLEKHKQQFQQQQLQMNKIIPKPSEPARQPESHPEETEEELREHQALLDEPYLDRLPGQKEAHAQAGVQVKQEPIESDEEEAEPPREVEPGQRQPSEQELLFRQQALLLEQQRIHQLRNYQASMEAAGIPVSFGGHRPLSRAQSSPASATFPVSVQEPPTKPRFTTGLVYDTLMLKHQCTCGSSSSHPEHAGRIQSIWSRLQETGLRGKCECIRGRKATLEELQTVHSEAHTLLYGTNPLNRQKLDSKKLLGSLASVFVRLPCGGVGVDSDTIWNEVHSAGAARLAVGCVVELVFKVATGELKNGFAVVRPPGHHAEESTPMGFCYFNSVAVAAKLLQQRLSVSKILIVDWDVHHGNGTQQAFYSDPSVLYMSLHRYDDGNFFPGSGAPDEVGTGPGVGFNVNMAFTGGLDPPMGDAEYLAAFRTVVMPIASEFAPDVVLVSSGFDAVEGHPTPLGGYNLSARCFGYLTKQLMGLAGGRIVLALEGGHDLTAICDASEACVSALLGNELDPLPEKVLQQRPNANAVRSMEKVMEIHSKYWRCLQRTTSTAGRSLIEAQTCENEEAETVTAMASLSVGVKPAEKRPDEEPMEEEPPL
pIC50: −log10 of the molar value.
metric: pIC50

Report its pIC50 with Histone deacetylase 4 (Homo sapiens, UniProt P56524) as the test system: `CN(Cc1ccc(/C=C/C(=O)NO)cc1F)CC12CC3CC(CC(C3)C1)C2`
< 6.00

----------
target-system: Polyamine deacetylase HDAC10 (Homo sapiens, UniProt Q969S8)
Sequence (Q969S8 whole entry): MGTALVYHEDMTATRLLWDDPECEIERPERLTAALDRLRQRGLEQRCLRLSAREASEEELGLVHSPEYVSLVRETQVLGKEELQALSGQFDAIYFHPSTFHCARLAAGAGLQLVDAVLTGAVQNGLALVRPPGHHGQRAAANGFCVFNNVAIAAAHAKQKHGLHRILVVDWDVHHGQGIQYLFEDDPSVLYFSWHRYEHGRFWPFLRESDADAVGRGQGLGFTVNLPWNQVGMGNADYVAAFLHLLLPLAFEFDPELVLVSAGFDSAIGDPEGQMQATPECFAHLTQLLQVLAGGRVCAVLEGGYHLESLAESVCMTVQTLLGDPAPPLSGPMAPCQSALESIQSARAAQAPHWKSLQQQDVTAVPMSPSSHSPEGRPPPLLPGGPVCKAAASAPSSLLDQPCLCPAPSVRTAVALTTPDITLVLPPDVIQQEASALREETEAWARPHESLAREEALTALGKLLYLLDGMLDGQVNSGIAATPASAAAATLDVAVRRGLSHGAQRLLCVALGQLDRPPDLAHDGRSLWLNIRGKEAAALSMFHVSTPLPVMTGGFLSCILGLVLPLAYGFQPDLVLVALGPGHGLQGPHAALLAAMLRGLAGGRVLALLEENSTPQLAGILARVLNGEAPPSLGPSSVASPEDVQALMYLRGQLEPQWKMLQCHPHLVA
metric: pIC50
Friendly reminder that pIC50 comes from taking -log10 of the concentration in mol/L.

Retrieve pIC50 measured for `CN(Cc1ccc(/C=C/C(=O)NO)cc1F)CC12CC3CC(CC(C3)C1)C2` and print it.
7.48

----------
target-system: Protein deacetylase HDAC6 (Homo sapiens, UniProt Q9UBN7)
Sequence (Q9UBN7 whole entry): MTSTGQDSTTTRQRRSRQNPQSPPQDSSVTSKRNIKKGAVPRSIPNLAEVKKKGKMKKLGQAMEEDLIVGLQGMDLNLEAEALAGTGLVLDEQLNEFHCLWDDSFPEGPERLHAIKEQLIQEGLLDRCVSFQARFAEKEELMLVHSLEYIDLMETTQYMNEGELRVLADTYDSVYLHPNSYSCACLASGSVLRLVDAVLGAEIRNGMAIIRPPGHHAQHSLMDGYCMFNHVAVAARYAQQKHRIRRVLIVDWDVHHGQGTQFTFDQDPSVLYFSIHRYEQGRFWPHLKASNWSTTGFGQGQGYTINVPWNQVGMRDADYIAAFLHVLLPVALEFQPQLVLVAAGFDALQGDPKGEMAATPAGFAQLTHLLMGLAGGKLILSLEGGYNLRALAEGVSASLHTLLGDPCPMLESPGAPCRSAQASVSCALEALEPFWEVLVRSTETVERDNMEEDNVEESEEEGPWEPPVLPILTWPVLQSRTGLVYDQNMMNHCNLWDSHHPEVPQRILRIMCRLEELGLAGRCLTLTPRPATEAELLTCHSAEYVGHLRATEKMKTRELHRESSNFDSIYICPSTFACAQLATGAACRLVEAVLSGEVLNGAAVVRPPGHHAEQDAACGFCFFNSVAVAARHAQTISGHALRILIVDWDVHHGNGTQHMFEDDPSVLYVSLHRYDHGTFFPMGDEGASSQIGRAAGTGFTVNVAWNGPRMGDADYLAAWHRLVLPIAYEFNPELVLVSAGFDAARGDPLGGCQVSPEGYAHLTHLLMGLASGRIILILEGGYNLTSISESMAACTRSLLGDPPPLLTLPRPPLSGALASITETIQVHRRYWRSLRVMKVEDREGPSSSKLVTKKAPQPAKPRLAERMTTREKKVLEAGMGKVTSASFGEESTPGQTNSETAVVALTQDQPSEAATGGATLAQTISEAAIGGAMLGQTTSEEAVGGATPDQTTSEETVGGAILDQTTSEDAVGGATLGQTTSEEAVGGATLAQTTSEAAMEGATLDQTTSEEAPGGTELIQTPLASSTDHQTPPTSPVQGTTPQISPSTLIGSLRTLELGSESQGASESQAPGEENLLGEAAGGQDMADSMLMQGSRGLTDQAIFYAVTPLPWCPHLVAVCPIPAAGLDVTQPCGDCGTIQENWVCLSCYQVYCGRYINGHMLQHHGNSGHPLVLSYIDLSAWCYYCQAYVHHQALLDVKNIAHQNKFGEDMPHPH
assay-comment: IC50 Assay: IC50 measurements were conducted by BPS Biosciences (Table 1) or by Nanosyn (Table 1A) with an established fluorescence assay.
metric: IC50
Include the unit right after the number.

Would you please give the reported IC50 of `CN(Cc1ccc(/C=C/C(=O)NO)cc1F)CC12CC3CC(CC(C3)C1)C2` with Protein deacetylase HDAC6 (Homo sapiens, UniProt Q9UBN7)?
180 nM
